Where do the numbers come from? From patent US8012979B2.

# Tgt: human active recombinant p38α-6His tagged (Homo sapiens, UniProt Q16539)
# Construct: 6His
# Sequence (Q16539 whole entry): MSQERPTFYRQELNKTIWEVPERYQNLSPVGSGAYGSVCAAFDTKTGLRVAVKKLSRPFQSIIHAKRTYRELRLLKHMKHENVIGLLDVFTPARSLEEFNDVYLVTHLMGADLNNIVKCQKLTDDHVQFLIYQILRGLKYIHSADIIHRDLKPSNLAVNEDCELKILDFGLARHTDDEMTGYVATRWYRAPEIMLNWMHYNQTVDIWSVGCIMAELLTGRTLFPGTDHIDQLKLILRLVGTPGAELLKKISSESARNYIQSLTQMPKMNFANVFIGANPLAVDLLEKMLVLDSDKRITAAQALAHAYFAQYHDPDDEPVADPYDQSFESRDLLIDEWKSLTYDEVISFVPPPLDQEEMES
# Experimental Details: p38 Alpha Enzyme Assay (AlphaScreen, biotinylated-ATF2 substrate)
# Assay type: biochemical
# Test Context: pre-incubated 4 hours at 37° C., reaction initiated with ATP; 0.5 nM enzyme; read-out: p38 pIC50 (converted)
Counter-ions that a name gives are not always drawn.
Result Type: IC50 (nM)
Quick note: give the figure in nM, leave out the unit.

The following compounds have reported results that may help.
Cc1ccc(C(=O)NC2CC2)cc1-c1ccc2c(=O)n(Cc3ccc(C(=O)N4CCN(C)CC4)cc3)ccc2c1 | 1.26
Cc1ccc(C(=O)NC2CC2)cc1-c1ccc2c(=O)n(Cc3ccc(CN(C)C)cc3)cc(C)c2c1 | 2.51
CNCCOc1cccc(Cn2ccc3cc(-c4cc(C(=O)NC5CC5)ccc4C)ccc3c2=O)c1 | 2.51
Cc1ccc(C(=O)NC2CC2)cc1-c1ccc2c(=O)n(CC3CC3)cc(C(=O)NCCN(C)C)c2c1 | 3.98
Cc1ccc(C(=O)NC2CC2)cc1-c1ccc2c(=O)n(Cc3ccc(C4=CCNCC4)cc3)ccc2c1 [Example 7, hydrochloride] | 0.398
Cc1ccc(C(=O)NC2CC2)cc1-c1ccc2c(=O)n(CC3CC3)cc(CN3CCCN(CCO)CC3)c2c1 | 0.398
Cc1ccc(C(=O)NC2CC2)cc1-c1ccc2c(=O)n(Cc3ccc(CNC(C)(C)C)cc3)ccc2c1 | 1
Cc1ccc(C(=O)NC2CC2)cc1-c1ccc2c(=O)n(Cc3cccc(CN(C)C)c3)ccc2c1 | 3.16

Bench note: what IC50 did Cc1ccc(C(=O)NC2CC2)cc1-c1ccc2c(=O)n(Cc3ccc(CN4CCCC4)cc3)ccc2c1 show?
3.16

Bench note: what IC50 did Cc1ccc(C(=O)NC2CC2)cc1-c1ccc2c(=O)n(CC3CCC3)ccc2c1 show?
3.98
